- test.target: UniProt Q9H6Z9
- Sequence (Q9H6Z9 whole entry): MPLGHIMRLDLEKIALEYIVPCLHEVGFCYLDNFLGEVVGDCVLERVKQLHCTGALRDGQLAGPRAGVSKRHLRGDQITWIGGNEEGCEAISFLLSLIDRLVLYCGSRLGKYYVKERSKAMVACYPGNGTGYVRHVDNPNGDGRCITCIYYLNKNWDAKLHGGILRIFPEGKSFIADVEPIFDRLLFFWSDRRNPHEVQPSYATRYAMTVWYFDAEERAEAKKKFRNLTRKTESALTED
measure: IC50

[ask] Form field - read-out: IC50; system: UniProt Q9H6Z9; submitted item: Cc1nc(C(=O)NCC(=O)O)c(O)c2ccc(Oc3ccccc3)cc12 [Compound A]
[reply] 200 to 2000 nM

---

- test.target: PHD1 (Homo sapiens, UniProt Q96KS0)
- Sequence (Q96KS0 whole entry): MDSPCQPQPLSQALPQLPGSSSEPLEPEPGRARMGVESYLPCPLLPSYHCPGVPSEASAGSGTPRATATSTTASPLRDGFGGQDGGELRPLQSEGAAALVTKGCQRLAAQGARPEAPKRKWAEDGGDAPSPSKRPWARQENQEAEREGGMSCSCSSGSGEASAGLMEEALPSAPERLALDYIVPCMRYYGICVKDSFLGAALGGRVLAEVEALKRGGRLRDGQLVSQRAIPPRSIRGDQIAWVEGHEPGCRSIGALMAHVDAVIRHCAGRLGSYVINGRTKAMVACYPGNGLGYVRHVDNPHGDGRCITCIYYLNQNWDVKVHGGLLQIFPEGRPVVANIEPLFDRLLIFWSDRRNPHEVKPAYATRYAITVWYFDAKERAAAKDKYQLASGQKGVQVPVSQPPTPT
pIC50: −log10 of the molar value.
measure: pIC50

[ask] Entry Cc1nc(C(=O)NCC(=O)O)c(O)c2ccc(Oc3ccccc3)cc12 [Compound A] : reported pIC50 = ?
[reply] 5.70 to 6.70

Cited source: patent US20140309256A1
